system: HL-60(TB); experiment: Growth inhibition of human HL-60(TB) cells at 10 uM incubated for 48 hrs by sulforhodamine B assay relative to control; format: functional; details: read-out: GI
Outcome label depends on inhibition of growth at 10 µM relative to 20%: at/above gives rule met, below gives rule not met.

{"compoundSmiles": "O=C(CNC1CCCCC1)Nc1ccc(-c2nc3ccccc3s2)cc1", "testTarget": "HL-60(TB)", "categoryLabel": "rule met"}
{"compoundSmiles": "O=C(CNc1c(Cl)cccc1Cl)Nc1ccc(-c2nc3ccccc3s2)cc1", "testTarget": "HL-60(TB)", "categoryLabel": "rule met"}
{"compoundSmiles": "Cc1cc(C)n(CC(=O)Nc2ccc(-c3nc4ccccc4s3)cc2)n1", "testTarget": "HL-60(TB)", "categoryLabel": "rule not met"}
{"compoundSmiles": "O=C(Cn1cnc2ccccc21)Nc1ccc(-c2nc3ccccc3s2)cc1", "testTarget": "HL-60(TB)", "categoryLabel": "rule met"}
{"compoundSmiles": "O=C(CNc1nc2ccccc2s1)Nc1ccc(-c2nc3ccccc3s2)cc1", "testTarget": "HL-60(TB)", "categoryLabel": "rule not met"}
{"compoundSmiles": "COc1ccc(NCC(=O)Nc2ccc(-c3nc4ccccc4s3)cc2)cc1", "testTarget": "HL-60(TB)", "categoryLabel": "rule met"}
{"compoundSmiles": "O=C(Cn1nnc2ccccc21)Nc1ccc(-c2nc3ccccc3s2)cc1", "testTarget": "HL-60(TB)", "categoryLabel": "rule not met"}
{"compoundSmiles": "O=C(CNCc1ccccc1)Nc1ccc(-c2nc3ccccc3s2)cc1", "testTarget": "HL-60(TB)", "categoryLabel": "rule not met"}
{"compoundSmiles": "O=C(CNc1nnc(-c2ccc(Cl)cc2)o1)Nc1ccc(-c2nc3ccccc3s2)cc1", "testTarget": "HL-60(TB)", "categoryLabel": "rule not met"}
{"compoundSmiles": "O=C(Cn1c2ccccc2c2ccccc21)Nc1ccc(-c2nc3ccccc3s2)cc1", "testTarget": "HL-60(TB)", "categoryLabel": "rule not met"}
